# target_system: T1, rNPR1-ANP complex (rat, UniProt P01160 124-151 (human entry), limits assumed)
# T1 construct: rNPR1 antigen in the presence of ANP; also called rNPR1 + 100 nM ANP
# T1 sequence: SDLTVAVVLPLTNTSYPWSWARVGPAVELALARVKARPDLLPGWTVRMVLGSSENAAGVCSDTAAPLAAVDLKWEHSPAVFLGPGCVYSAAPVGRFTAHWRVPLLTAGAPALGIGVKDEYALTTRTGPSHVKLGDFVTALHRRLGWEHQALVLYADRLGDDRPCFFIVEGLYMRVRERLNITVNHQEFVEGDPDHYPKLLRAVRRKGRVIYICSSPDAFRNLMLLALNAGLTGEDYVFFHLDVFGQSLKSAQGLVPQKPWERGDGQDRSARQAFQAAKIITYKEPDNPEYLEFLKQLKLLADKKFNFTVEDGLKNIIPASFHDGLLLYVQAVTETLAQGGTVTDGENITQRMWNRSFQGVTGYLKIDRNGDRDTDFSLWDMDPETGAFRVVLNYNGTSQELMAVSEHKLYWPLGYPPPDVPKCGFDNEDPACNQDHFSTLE
# T1 sequence (peptide): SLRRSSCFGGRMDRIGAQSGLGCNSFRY
# assay: ELISA, 1 µM IgG
# Set-up: unit not given here
measure_name: ELISA binding at 1 µM IgG
// response body must contain only the number

Prompt: For the binder YY01 (IgG format) (antibody, V domains shown, also called YY01_LALA) VH: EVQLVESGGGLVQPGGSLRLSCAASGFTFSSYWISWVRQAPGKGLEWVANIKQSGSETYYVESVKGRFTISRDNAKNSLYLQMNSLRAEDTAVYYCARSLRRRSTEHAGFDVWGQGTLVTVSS VL: DIQMTQSPSSLSASVGDRVTITCRASQGISNYLAWYQQKPGKVPKLLIYAASTLQSGVPSRFSGSGSGTDFTLTISSLQPEDVATYYCQQADKFPYTFGQGTKVEIKR , what ELISA binding at 1 µM IgG is on record?
Response: 50
